# Lookup of reported IC50 keyed by entry
TARGET: His-GST-TVMV-hRIPK1(1-324) (Homo sapiens (Human))
Sequence (Q13546 1-324): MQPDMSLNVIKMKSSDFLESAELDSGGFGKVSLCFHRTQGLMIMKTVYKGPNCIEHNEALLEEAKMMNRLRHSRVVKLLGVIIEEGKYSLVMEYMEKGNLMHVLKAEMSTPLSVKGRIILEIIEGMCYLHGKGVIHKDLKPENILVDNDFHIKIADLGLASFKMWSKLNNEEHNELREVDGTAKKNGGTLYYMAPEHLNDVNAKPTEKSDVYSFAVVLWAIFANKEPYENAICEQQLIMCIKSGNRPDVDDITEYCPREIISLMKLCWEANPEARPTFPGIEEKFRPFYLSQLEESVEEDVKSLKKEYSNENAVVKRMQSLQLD
PROCEDURE_DETAILS: RIPK1 HTRF Binding Assay
COND: HTRF binding, 1 h at rt; read-out: RIPK1 (IC50)
Field: numeric (nM). Do not append units.

Example results:
SMILES_REPR	TARGET	ASSAY_METRIC	DISPLAY_UNIT	QUANTITATIVE_READOUT
CC(=O)Nc1cn2nc(-c3cnc(C)c(C(=O)NCc4cc(F)cc(F)c4OCC4CC4)c3)ccc2n1	His-GST-TVMV-hRIPK1(1-324) (Homo sapiens (Human))	IC50	nM	1
COc1ncc(-c2ccc3nc(NC(=O)C(C)(C)C#N)cn3n2)cc1C(=O)NCc1cc(OCC2CC2)ccc1F	His-GST-TVMV-hRIPK1(1-324) (Homo sapiens (Human))	IC50	nM	257
COc1ncc(-c2ccc3nc(NC(C)=O)cn3n2)cc1C(=O)NCc1c(F)ccc(F)c1OC	His-GST-TVMV-hRIPK1(1-324) (Homo sapiens (Human))	IC50	nM	97

Let us examine a further case.
Look up and report measured IC50 (His-GST-TVMV-hRIPK1(1-324) (Homo sapiens (Human))) for the following compound: [2H]C([2H])([2H])[C@@H](NC(=O)c1cc(-c2ccc3nc(NC(C)=O)cn3n2)c(C)nc1C)c1cc(OC(F)(F)F)ccc1F
9
